test system: Aerobactin synthetase IucA (Klebsiella pneumoniae, hypervirulent); experiment: IucA enzyme inhibition, biochemical, LOPAC library, absorbance readout (AID 1346212); settings: IucA enzyme assay, absorbance (OD) readout; hits give low values;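 tested at 8 µM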;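 further: 100% = no compound wells and 0% = no enzyme wells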
parameter: remaining activity (%)
Only the number, expressed in %, is required.

Cc1cccc(C(=O)NCN2CCN(c3ccccc3C#N)CC2)c1    123
CCCn1c(=O)c2[nH]c(-c3ccc(OCC(=O)NCCN)cc3)nc2n(CCC)c1=O    109
CCN(CC)CCNC(=O)c1cc(Cl)c(N)cc1OC    101
NS(=O)(=O)c1cc(C(=O)O)c(NCc2ccco2)cc1Cl    97.8
CC1Cc2cc3c(cc2C(c2ccc(N)cc2)=NN1)OCO3 (stereo unspecified)    102

Turning now to a further molecule:
Aerobactin synthetase IucA (Klebsiella pneumoniae, hypervirulent) remaining activity of CN1[C@@H]2CC[C@H]1CC(OC(=O)[C@H](CO)c1ccccc1)C2 (stereo partly specified) is 107
